Target: Proto-oncogene tyrosine-protein kinase Src (Homo sapiens) (UniProt P12931)
Sequence (P12931 2-536 limits assumed): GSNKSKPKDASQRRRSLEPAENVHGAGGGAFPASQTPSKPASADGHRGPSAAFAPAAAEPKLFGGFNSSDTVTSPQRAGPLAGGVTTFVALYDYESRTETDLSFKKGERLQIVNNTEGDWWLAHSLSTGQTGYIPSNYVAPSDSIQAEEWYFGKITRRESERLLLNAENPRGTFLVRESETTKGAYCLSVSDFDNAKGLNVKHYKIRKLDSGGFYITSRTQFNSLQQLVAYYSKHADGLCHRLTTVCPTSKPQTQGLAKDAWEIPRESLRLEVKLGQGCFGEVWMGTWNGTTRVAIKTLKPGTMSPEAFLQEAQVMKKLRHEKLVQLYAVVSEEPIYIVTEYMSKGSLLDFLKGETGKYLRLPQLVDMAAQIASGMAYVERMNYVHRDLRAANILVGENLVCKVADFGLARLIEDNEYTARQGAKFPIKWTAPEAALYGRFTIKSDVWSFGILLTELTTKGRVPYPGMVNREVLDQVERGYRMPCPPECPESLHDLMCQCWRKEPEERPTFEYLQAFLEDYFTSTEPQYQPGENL
Assay: Inhibition of Src at 10 uM by HTRF assay relative to control
Decision: inhibition compared against 2%; not below it gives 1, below it gives -1.

Before answering, review these 5 worked examples.
Cc1cccc(N(C)c2cc(Nc3cccc(C(=O)NCCCn4ccnc4)c3)ncn2)c1 = 1
Cc1cccc(Nc2cc(Nc3cccc(C(=O)N(CC(C)O)CC(C)O)c3)ncn2)c1 (stereo not given) = 1
CN(CCCn1ccnc1)C(=O)[C@@H]1CCCN1c1nccc(Nc2ccccc2)n1 = 1
COC[C@@H]1CCCN1C(=O)[C@@H]1CCCN1c1cc(Nc2cccc(OC)c2)nc(N)n1 = 1
O=C(NCCc1ccc(O)cc1)c1cccc(Nc2nccc(Nc3ccc4ncsc4c3)n2)c1 = 1

Let's switch to this compound now.
# bool: inhibition of CN(CCc1ccccn1)C(=O)[C@@H]1CCCN1c1nccc(Nc2ccccc2)n1 >= 2%
-1

====

Below: a set of entries, each annotated with reported inhibition.
Target: Epidermal growth factor receptor (Homo sapiens)
Experiment: Inhibition of EGFR at 10 uM by HTRF assay relative to control
Report as: number unit

Examples with their reported inhibition follow.
Cc1cccc(Nc2cc(Nc3cccc(C(=O)N(CC(C)O)CC(C)O)c3)ncn2)c1 (stereo not given) = 100%
O=C(c1nc(SCc2ccc(Cl)cc2)n2ccccc12)N1CCN(c2ncnc3c2CN(Cc2ccccc2)CC3)CC1 = 0%

Which inhibition value belongs to COc1cccc(Nc2cc(N3CCC[C@H]3C(=O)NCCc3ccc(O)cc3)nc(N)n2)c1 ?
0%

Which inhibition value belongs to O=C(NCCc1ccc(O)cc1)c1cccc(Nc2nccc(Nc3ccc4ncsc4c3)n2)c1 ?
0%

Which inhibition value belongs to Nc1nc(Nc2ccc3ncsc3c2)cc(N2CCC[C@H]2C(=O)NCCc2cccc(I)c2)n1 ?
0%

====

Molecular target: Vascular endothelial growth factor receptor 2 (Homo sapiens) (UniProt P35968)
Sequence (P35968 whole entry): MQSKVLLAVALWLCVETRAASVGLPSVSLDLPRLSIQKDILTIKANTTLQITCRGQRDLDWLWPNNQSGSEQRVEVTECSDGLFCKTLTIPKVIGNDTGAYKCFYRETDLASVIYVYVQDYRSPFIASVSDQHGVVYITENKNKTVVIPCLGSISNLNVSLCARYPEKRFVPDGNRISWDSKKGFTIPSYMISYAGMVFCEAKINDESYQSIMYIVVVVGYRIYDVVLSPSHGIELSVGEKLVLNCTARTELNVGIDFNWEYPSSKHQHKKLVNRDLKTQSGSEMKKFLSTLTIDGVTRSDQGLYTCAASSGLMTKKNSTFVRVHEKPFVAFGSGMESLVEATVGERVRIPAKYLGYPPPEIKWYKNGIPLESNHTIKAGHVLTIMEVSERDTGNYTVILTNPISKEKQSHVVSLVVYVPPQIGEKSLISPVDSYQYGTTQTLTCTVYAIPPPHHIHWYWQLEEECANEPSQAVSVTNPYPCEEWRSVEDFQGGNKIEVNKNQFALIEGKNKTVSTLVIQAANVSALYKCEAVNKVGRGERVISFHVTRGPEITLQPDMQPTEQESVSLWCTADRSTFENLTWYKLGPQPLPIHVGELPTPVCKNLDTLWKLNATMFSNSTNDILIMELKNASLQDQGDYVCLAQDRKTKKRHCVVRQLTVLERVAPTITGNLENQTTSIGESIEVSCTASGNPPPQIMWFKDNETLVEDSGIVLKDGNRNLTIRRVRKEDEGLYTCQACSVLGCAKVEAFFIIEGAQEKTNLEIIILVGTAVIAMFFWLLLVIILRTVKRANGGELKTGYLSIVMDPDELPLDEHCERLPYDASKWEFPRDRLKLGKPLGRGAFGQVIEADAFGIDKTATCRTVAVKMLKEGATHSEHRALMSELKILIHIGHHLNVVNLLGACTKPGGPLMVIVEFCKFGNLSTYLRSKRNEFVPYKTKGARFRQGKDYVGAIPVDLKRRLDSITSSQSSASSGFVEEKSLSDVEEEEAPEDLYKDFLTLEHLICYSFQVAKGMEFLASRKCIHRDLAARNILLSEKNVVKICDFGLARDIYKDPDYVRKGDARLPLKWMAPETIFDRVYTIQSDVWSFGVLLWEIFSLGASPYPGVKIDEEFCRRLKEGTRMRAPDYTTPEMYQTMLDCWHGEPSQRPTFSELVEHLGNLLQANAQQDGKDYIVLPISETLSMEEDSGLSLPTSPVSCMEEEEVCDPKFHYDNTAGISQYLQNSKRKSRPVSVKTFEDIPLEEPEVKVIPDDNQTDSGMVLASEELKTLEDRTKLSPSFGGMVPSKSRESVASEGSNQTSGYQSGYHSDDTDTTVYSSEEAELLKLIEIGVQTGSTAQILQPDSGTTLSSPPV
Experiment: Inhibition of KDR at 10 uM by HTRF assay relative to control
Below: a set of entries, each annotated with reported inhibition.
Answer format: numeric, % implied, no suffix.

Cc1cccc(Nc2nccc(Nc3cccc(C(=O)N(C)CCc4ccccn4)c3)n2)c1 = 81

Which inhibition value belongs to Nc1nc(Nc2ccc(C(=O)NCCc3ccncc3)cc2)cc(N2CCOCC2)n1 ?
13

Which inhibition value belongs to COc1ccc(-c2noc(CN3CCN(c4cc(Nc5cccc(O)c5)ncn4)CC3)n2)cc1 ?
0

Which inhibition value belongs to COc1cccc(Nc2cc(Nc3cccc(C(=O)N(C)CCc4ccccn4)c3)nc(N)n2)c1 ?
7

Which inhibition value belongs to COC[C@@H]1CCCN1C(=O)[C@@H]1CCCN1c1nccc(Nc2ccccc2)n1 ?
4

Which inhibition value belongs to Cc1cccc(N(C)c2cc(Nc3ccc(CC(=O)Nc4ccc5ncsc5c4)cc3)ncn2)c1 ?
40

====

Molecular target: Platelet-derived growth factor receptor beta (Homo sapiens) (UniProt P09619)
Sequence (P09619 whole entry): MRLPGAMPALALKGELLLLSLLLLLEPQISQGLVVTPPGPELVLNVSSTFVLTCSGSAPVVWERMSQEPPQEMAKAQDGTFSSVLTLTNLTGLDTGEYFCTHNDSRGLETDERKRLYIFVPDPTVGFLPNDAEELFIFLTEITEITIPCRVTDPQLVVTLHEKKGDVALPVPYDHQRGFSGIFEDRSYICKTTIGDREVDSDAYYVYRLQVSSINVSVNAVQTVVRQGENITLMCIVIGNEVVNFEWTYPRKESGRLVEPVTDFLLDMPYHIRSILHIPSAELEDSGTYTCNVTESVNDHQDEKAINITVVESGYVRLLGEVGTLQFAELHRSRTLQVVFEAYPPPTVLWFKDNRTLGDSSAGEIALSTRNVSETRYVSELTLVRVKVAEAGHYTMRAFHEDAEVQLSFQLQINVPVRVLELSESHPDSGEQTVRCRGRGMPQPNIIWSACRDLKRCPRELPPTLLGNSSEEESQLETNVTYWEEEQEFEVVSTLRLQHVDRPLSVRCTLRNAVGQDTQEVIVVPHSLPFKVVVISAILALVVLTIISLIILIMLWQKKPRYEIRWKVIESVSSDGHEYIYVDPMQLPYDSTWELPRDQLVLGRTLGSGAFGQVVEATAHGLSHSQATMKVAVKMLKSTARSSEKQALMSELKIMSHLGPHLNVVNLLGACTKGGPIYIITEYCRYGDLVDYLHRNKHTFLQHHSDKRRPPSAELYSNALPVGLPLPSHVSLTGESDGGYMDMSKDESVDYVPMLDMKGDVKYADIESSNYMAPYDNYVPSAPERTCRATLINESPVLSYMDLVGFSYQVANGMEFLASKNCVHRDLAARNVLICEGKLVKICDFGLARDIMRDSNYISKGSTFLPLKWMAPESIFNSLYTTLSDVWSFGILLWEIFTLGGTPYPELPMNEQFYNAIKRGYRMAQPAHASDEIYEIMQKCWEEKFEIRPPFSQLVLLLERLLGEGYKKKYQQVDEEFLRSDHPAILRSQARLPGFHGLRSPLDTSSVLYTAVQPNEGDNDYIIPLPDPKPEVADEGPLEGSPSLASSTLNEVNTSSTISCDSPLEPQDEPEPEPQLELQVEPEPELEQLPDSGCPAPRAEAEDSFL
Assay: Inhibition of PDGFRbeta at 10 uM by HTRF assay relative to control
Below: a set of entries, each annotated with reported inhibition.
Answer format: numeric, % implied, no suffix.

CN(C)c1ccc(C(=O)N2CCN(c3ncnc4c3CN(Cc3ccccc3)CC4)CC2)c2ccccc12 = 4
O=C(COc1ccccc1)N1CCN(c2nccc(Nc3ccc4ncsc4c3)n2)CC1 = 30
Nc1nc(Nc2ccc3ncsc3c2)cc(N2CCC[C@H]2C(=O)N[C@@H](CO)c2ccccc2)n1 = 6
CC(=O)N1CCN(C(=O)c2cccc(Nc3cc(N(C)c4cccc(C)c4)ncn3)c2)CC1 = 42
O=C(c1nc(SCc2ccc(Cl)cc2)n2ccccc12)N1CCN(c2cc(Nc3cccc(Br)c3)ncn2)CC1 = 10

Which inhibition value belongs to Cc1cccc(Nc2cc(Nc3cccc(C(=O)N(CC(C)O)CC(C)O)c3)ncn2)c1 (stereo not drawn) ?
32

Which inhibition value belongs to Clc1ccc2sc(CN3CCN(c4ncnc5c4CN(Cc4ccccc4)CC5)CC3)cc2c1 ?
5

Which inhibition value belongs to Cc1ccc(CN2CCN(c3nccc(C(C#N)c4ccccn4)n3)CC2)cc1 (stereo not drawn) ?
14

Which inhibition value belongs to Cc1cccc(Nc2nccc(Nc3cccc(C(=O)NCc4ccc(N(C)C)cc4)c3)n2)c1 ?
24

Which inhibition value belongs to Cc1cccc(Nc2nccc3c2CN(C(=O)c2cc(C)n(C)c2C)CC3)c1 ?
5

Which inhibition value belongs to Cc1cccc(N(C)c2cc(Nc3cccc(C(=O)NCc4ccc(N(C)C)cc4)c3)ncn2)c1 ?
13

Which inhibition value belongs to O=C(NC1Cc2ccccc2C1)c1cccc(Nc2ccnc(N3CCN(c4ccccc4)CC3)n2)c1 ?
8

Which inhibition value belongs to Cc1cccc(N(C)c2cc(Nc3cccc(C(=O)NCCCn4ccnc4)c3)ncn2)c1 ?
37
